- assay_summary: Pharmacokinetic evaluation of liquid bevirimat dosage forms, oral gavage, male Cynomolgus monkeys
- cond: male, cynomolgus monkey, in vivo, po, 50 mg/monkey, Plasma Concentration, PG/glycerin/Vitamin ETPGS/Tween80/Plasdone C15 formulation; 12 hr; AVG
quantity_name: concentration at 12 h (µg/mL)
Number only, in µg/mL; omit the unit.

Can you look up the measured concentration at 12 h of C=C(C)[C@@H]1CC[C@]2(C(=O)O)CC[C@]3(C)[C@H](CC[C@@H]4[C@@]5(C)CC[C@H](OC(=O)CC(C)(C)C(=O)O)C(C)(C)[C@@H]5CC[C@]43C)[C@@H]12 for me? 8.16

###

- assay_summary: Pharmacokinetic evaluation of liquid bevirimat dosage forms, oral gavage, male Cynomolgus monkeys
- cond: male, cynomolgus monkey, in vivo, po, 50 mg, t1/2, 12.5 mg FAE/mL in 40% PG, 20% Glycerin, 1% TPGS, 0.25% Tween80, 0.2% Povidone K15, 50 mg FAE/monkey oral gavage; monkeys 117,118,119,AVG
quantity_name: half-life (h)
Number only, in h; omit the unit.

Can you look up the measured half-life of C=C(C)[C@@H]1CC[C@]2(C(=O)O)CC[C@]3(C)[C@H](CC[C@@H]4[C@@]5(C)CC[C@H](OC(=O)CC(C)(C)C(=O)O)C(C)(C)[C@@H]5CC[C@]43C)[C@@H]12 [Bevirimat] for me? 10.4

###

- assay_summary: Pharmacokinetic evaluation of liquid bevirimat dosage forms, oral gavage, male Cynomolgus monkeys
- cond: male, cynomolgus monkey, in vivo, po, 50 mg, Cmax, 50 mg/monkey, PG/glycerin/Vitamin ETPGS/Tween80/Plasdone C15 formulation; individual monkey
quantity_name: Cmax
Write the numeric value and append its unit.

Can you look up the measured Cmax of C=C(C)[C@@H]1CC[C@]2(C(=O)O)CC[C@]3(C)[C@H](CC[C@@H]4[C@@]5(C)CC[C@H](OC(=O)CC(C)(C)C(=O)O)C(C)(C)[C@@H]5CC[C@]43C)[C@@H]12 [Bevirimat] for me? 55.1 µg/mL

###

- assay_summary: Pharmacokinetic evaluation of liquid bevirimat dosage forms, oral gavage, male Cynomolgus monkeys
- cond: male, cynomolgus monkey, in vivo, po, 200 mg/monkey, Plasma Concentration, PG/glycerin/Vitamin ETPGS/ethanol formulation; 24 hr; AVG
quantity_name: concentration at 24 hr (ng/mL)
Number only, in ng/mL; omit the unit.

Can you look up the measured concentration at 24 hr of C=C(C)[C@@H]1CC[C@]2(C(=O)O)CC[C@]3(C)[C@H](CC[C@@H]4[C@@]5(C)CC[C@H](OC(=O)CC(C)(C)C(=O)O)C(C)(C)[C@@H]5CC[C@]43C)[C@@H]12 for me? 4840

###

- assay_summary: Pharmacokinetic evaluation of liquid bevirimat dosage forms, oral gavage, male Cynomolgus monkeys
- cond: male, cynomolgus monkey, in vivo, po, 50 mg, t1/2, 12.5 mg FAE/mL in 40% PG, 20% Glycerin, 0.25% Tween80, 0.2% Povidone K15, 50 mg FAE oral gavage; monkeys 186,116,120,AVG
quantity_name: half-life (h)
Number only, in h; omit the unit.

Can you look up the measured half-life of C=C(C)[C@@H]1CC[C@]2(C(=O)O)CC[C@]3(C)[C@H](CC[C@@H]4[C@@]5(C)CC[C@H](OC(=O)CC(C)(C)C(=O)O)C(C)(C)[C@@H]5CC[C@]43C)[C@@H]12 for me? 8

###

- assay_summary: Pharmacokinetic evaluation of liquid bevirimat dosage forms, oral gavage, male Cynomolgus monkeys
- cond: male, cynomolgus monkey, in vivo, po, 200 mg/monkey, Plasma Concentration, PG/glycerin/Vitamin ETPGS/ethanol formulation; 6.0 hr; individual monkey
quantity_name: concentration at 6 hr (µg/mL)
Number only, in µg/mL; omit the unit.

Can you look up the measured concentration at 6 hr of C=C(C)[C@@H]1CC[C@]2(C(=O)O)CC[C@]3(C)[C@H](CC[C@@H]4[C@@]5(C)CC[C@H](OC(=O)CC(C)(C)C(=O)O)C(C)(C)[C@@H]5CC[C@]43C)[C@@H]12 [Bevirimat] for me? 79.4

###

- assay_summary: Pharmacokinetic evaluation of liquid bevirimat dosage forms, oral gavage, male Cynomolgus monkeys
- cond: male, cynomolgus monkey, in vivo, po, 50 mg, AUCall, 12.5 mg FAE/mL in 40% PG, 20% Glycerin, 0.25% Tween80, 0.2% Povidone K15, 50 mg FAE oral gavage; monkeys 186,116,120,AVG
quantity_name: AUC (µg·h/mL)
Number only, in µg·h/mL; omit the unit.

Can you look up the measured AUC of C=C(C)[C@@H]1CC[C@]2(C(=O)O)CC[C@]3(C)[C@H](CC[C@@H]4[C@@]5(C)CC[C@H](OC(=O)CC(C)(C)C(=O)O)C(C)(C)[C@@H]5CC[C@]43C)[C@@H]12 for me? 212

###

- assay_summary: Pharmacokinetic evaluation of liquid bevirimat dosage forms, oral gavage, male Cynomolgus monkeys
- cond: male, cynomolgus monkey, in vivo, po, 50 mg FAE/monkey, Plasma concentration, 8.0 hr; 12.5 mg FAE/mL in 10% HPβCD, 50 mg FAE/monkey oral gavage; monkeys 186,116,120,AVG
quantity_name: concentration at 8 hr (ng/mL)
Number only, in ng/mL; omit the unit.

Can you look up the measured concentration at 8 hr of C=C(C)[C@@H]1CC[C@]2(C(=O)O)CC[C@]3(C)[C@H](CC[C@@H]4[C@@]5(C)CC[C@H](OC(=O)CC(C)(C)C(=O)O)C(C)(C)[C@@H]5CC[C@]43C)[C@@H]12 [Bevirimat] for me? 13000

###

- assay_summary: Pharmacokinetic evaluation of liquid bevirimat dosage forms, oral gavage, male Cynomolgus monkeys
- cond: male, cynomolgus monkey, in vivo, po, 50 mg FAE/monkey, Plasma concentration, 6.0 hr; 12.5 mg FAE/mL in 15% EtOH:0.5% TPGS:15% PG:5% Glycerin, 0.2% Povidone K90, 50 mg FAE/monkey oral gavage; monkeys 117,118,119,AVG
quantity_name: concentration at 6 hr
Write the numeric value and append its unit.

Can you look up the measured concentration at 6 hr of C=C(C)[C@@H]1CC[C@]2(C(=O)O)CC[C@]3(C)[C@H](CC[C@@H]4[C@@]5(C)CC[C@H](OC(=O)CC(C)(C)C(=O)O)C(C)(C)[C@@H]5CC[C@]43C)[C@@H]12 [Bevirimat] for me? 23100 ng/mL

###

- assay_summary: Pharmacokinetic evaluation of liquid bevirimat dosage forms, oral gavage, male Cynomolgus monkeys
- cond: male, cynomolgus monkey, in vivo, po, 200 mg/monkey, Plasma Concentration, PG/glycerin/Vitamin ETPGS/ethanol formulation; 12 hr; AVG
quantity_name: concentration at 12 hr (ng/mL)
Number only, in ng/mL; omit the unit.

Can you look up the measured concentration at 12 hr of C=C(C)[C@@H]1CC[C@]2(C(=O)O)CC[C@]3(C)[C@H](CC[C@@H]4[C@@]5(C)CC[C@H](OC(=O)CC(C)(C)C(=O)O)C(C)(C)[C@@H]5CC[C@]43C)[C@@H]12 [Bevirimat] for me? 19600

###

- assay_summary: Pharmacokinetic evaluation of liquid bevirimat dosage forms, oral gavage, male Cynomolgus monkeys
- cond: male, cynomolgus monkey, in vivo, po, 50 mg/monkey, Plasma Concentration, PG/glycerin/Vitamin ETPGS/Tween80/Plasdone C15 formulation; 1.0 hr; AVG
quantity_name: concentration at 1 h
Write the numeric value and append its unit.

Can you look up the measured concentration at 1 h of C=C(C)[C@@H]1CC[C@]2(C(=O)O)CC[C@]3(C)[C@H](CC[C@@H]4[C@@]5(C)CC[C@H](OC(=O)CC(C)(C)C(=O)O)C(C)(C)[C@@H]5CC[C@]43C)[C@@H]12 for me? 24800 ng/mL

###

- assay_summary: Pharmacokinetic evaluation of liquid bevirimat dosage forms, oral gavage, male Cynomolgus monkeys
- cond: male, cynomolgus monkey, in vivo, po, 200 mg/monkey, Plasma Concentration, PG/glycerin/Vitamin ETPGS/ethanol formulation; 1.0 hr; AVG
quantity_name: concentration at 1 hr (µg/mL)
Number only, in µg/mL; omit the unit.

Can you look up the measured concentration at 1 hr of C=C(C)[C@@H]1CC[C@]2(C(=O)O)CC[C@]3(C)[C@H](CC[C@@H]4[C@@]5(C)CC[C@H](OC(=O)CC(C)(C)C(=O)O)C(C)(C)[C@@H]5CC[C@]43C)[C@@H]12 for me? 64.8

###

- assay_summary: Pharmacokinetic evaluation of liquid bevirimat dosage forms, oral gavage, male Cynomolgus monkeys
- cond: male, cynomolgus monkey, in vivo, po, 50 mg FAE/monkey, Plasma concentration, 2.0 hr; 25 mg/mL in 30% EtOH:1% TPGS:30% PG:10% Glycerin, 50 mg FAE/monkey oral gavage; monkeys 117,118,119,AVG
quantity_name: concentration at 2 hr (µg/mL)
Number only, in µg/mL; omit the unit.

Can you look up the measured concentration at 2 hr of C=C(C)[C@@H]1CC[C@]2(C(=O)O)CC[C@]3(C)[C@H](CC[C@@H]4[C@@]5(C)CC[C@H](OC(=O)CC(C)(C)C(=O)O)C(C)(C)[C@@H]5CC[C@]43C)[C@@H]12 [Bevirimat] for me? 56.7
